target-desc: sheep Cyclooxygenase-2 (Cox2), PTGS2 (gene 443460) (UniProt P79208)
Sequence (P79208 whole entry, looked up): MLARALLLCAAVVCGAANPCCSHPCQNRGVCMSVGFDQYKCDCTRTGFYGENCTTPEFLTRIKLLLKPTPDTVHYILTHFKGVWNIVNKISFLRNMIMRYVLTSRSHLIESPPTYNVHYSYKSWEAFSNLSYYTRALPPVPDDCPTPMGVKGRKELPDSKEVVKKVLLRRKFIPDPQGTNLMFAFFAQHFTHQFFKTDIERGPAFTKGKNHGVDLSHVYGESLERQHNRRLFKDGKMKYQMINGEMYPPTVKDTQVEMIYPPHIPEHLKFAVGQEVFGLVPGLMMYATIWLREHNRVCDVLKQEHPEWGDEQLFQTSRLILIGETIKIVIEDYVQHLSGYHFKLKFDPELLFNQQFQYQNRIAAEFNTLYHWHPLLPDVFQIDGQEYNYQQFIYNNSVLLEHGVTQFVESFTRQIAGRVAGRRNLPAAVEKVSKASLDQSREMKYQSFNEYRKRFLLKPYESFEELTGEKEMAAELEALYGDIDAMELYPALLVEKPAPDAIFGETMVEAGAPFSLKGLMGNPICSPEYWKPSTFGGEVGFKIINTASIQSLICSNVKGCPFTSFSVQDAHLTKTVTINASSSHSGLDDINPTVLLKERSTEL
procedure-details: NVS_ENZ_oCOX2: NovaScreen (NVS) Enzymatic Assay for sheep Cyclooxygenase-2 (Cox2) (AID 2283231)
Records with an inconclusive call do not appear. The source made the active and inactive calls. How the source made its calls: active means hit-call score of the fitted dose curve at least 0.9, where 1 is the maximum; inconclusive means response in the unintended direction; inactive means score below 0.9.
# valid calls are 1.0 = active, 0.0 = inactive; nothing else

input: For CC(O)CCO (centres undefined) , what call appears in the results of this test?
output: 0.0

input: For CC(C)(C)OOC(=O)c1ccccc1 , what call appears in the results of this test?
output: 0.0

input: For O=P(OCCCl)(OCCCl)OCCCl , what call appears in the results of this test?
output: 0.0

input: For CN(C)c1ccc(C(=O)c2ccc(N(C)C)cc2)cc1 , what call appears in the results of this test?
output: 1.0

====

procedure-details: ACEA_AR_antagonist_AUC_viability: ACEA Biosciences xCELLigence Real-Time Cell Analysis on Androgen Receptor Antagonism for Viability (AID 2283776);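 further: 22Rv1 human prostate cancer cells growing on impedance electrode plates; area under impedance growth curve at 80 h after dosing as viability; hits lower the growth signal relative to DMSO meaning cytotoxicity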
Inconclusive results are not listed. Active and inactive are the calls of the source. The calls were made as follows: active = hit-call score of the fitted dose curve at least 0.9, where 1 is the maximum; inconclusive = response in the unintended direction; inactive = score below 0.9.
# valid calls are label 1 for active, label 0 for inactive; nothing else

input: For CCC(C)c1ccc(O)cc1 (centres undefined) , what call appears in the results of this test?
output: label 1

input: For COP(=S)(OC)SCN1C(=O)c2ccccc2C1=O , what call appears in the results of this test?
output: label 1

input: For c1ccc2c(c1)oc1ccccc12 , what call appears in the results of this test?
output: label 0

input: For CCC12COCN1COC2 , what call appears in the results of this test?
output: label 0

input: For Nc1ccc(Oc2ccc(N)cc2)cc1 , what call appears in the results of this test?
output: label 0

input: For O=[N+]([O-])C(Br)(CO)CO , what call appears in the results of this test?
output: label 1

input: For CNC(=O)Oc1cccc2c1OC(C)(C)C2 , what call appears in the results of this test?
output: label 0

input: For CN(C)c1ccc(C(=O)c2ccc(N(C)C)cc2)cc1 , what call appears in the results of this test?
output: label 1

input: For Cc1cc(N=Nc2ccccc2C)ccc1N , what call appears in the results of this test?
output: label 1

input: For CC(C)(C)OOC(C)(C)CCC(C)(C)OOC(C)(C)C , what call appears in the results of this test?
output: label 0

input: For Cc1ccc(N=C=O)cc1N=C=O , what call appears in the results of this test?
output: label 1

input: For COc1cc(C=O)cc2c1[C@H](COC(N)=O)[C@]1(OC(C)=O)ON2C[C@H]2[C@@H]1N2C(C)=O , what call appears in the results of this test?
output: label 1

input: For CC(O)CCO (centres undefined) , what call appears in the results of this test?
output: label 0

input: For Cc1ccc(N)c(N)c1 , what call appears in the results of this test?
output: label 1

====

procedure-details: TOX21_p53_BLA_p2_viability: Viability Assessment in the Tox21 HCT-116 p53 Agonism Beta-lactamase Assay, Phase 2 (AID 2283591);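 further: compound exposure lasted 16 h at 37 °C; actives lower the ATP signal meaning cytotoxicity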
Inconclusive results are not listed. Activity calls are given as the source filed them. How the source made its calls: active means hit-call score of the fitted dose curve at least 0.9, where 1 is the maximum; inconclusive means response in the unintended direction; inactive means score below 0.9.
experimental-endpoint: outcome

input: Consider the molecule CN(C)[C@@H]1C(=O)C(C(N)=O)=C(O)[C@@]2(O)C(=O)C3=C(O)c4c(O)cccc4[C@@](C)(O)[C@H]3C[C@@H]12 and give its measured outcome.
output: inactive

input: Consider the molecule Cc1ccc(N)c(N)c1 and give its measured outcome.
output: inactive

input: Consider the molecule CC(C)(C)OOC(C)(C)CCC(C)(C)OOC(C)(C)C and give its measured outcome.
output: inactive

input: Consider the molecule CC(C)(C)OOC(=O)c1ccccc1 and give its measured outcome.
output: inactive
